Origin of the recorded values: the supplement of paper PMC11502859

- System: HEK293T
- protocolNotes: median enrichment of reporter reads in eGFP-reduced (low/intermediate) vs eGFP-high sorted cells (eGFP-extension fusion abundance) (ratio); higher = stronger loss of eGFP-fusion protein abundance (more destabilising extension)
outcomeMeasure: median enrichment
Numbers only.

[
  {
    "substance": "SQGGTTQAPWAPRERGGIRAGQPPGCRCQEQSQAQVAPAACPVPFPKAPLHIEGRKREFRQLHSPFTPNPVFYSPEKRRESHE [STARD8]",
    "assayedTarget": "HEK293T",
    "median enrichment": 1.09
  },
  {
    "substance": "RAPTLQPQTLCTPRCDAGRGPPPGRTDCRSWEPRHAQASAEGAAGGSARLDPWHLIKKFSLMSMVVGQPSSLSQQAHAASVTS [ZFPM1]",
    "assayedTarget": "HEK293T",
    "median enrichment": 2.21
  },
  {
    "substance": "WRLSISRDMVLTQQFPVMAKCSI [IL13RA2]",
    "assayedTarget": "HEK293T",
    "median enrichment": 5.59
  },
  {
    "substance": "FILERNSTNVKNVTKLLSISLTLLHIRKFILEKNPTDVKNVAKPLSTPLNLLHIRDFILERNPTDVNNVVKLFTYPHTLLHIR [ZNF626]",
    "assayedTarget": "HEK293T",
    "median enrichment": 8.24
  }
]

Record median enrichment per entry; entries follow.
1. RCPCHLPSVHPESSQ [PPFIBP2]
2. SGWLSLPFSPSLSALGSVSTAGPKVKVLPLPEASWQGLSWLEVASLVPVLTPRPQRSCLPCCLSPPLCLCLRCVSHSEPPCFC [CCDC97]
3. YHCESITFSLSCSWTFCTENPGI [CREBBP]
4. EGGALCLCLPV [CTSE]

[0.445, 5.33, 33.7, 7.51]

====

- System: HEK293T
- protocolNotes: median enrichment of reporter reads in eGFP-reduced (low/intermediate) vs eGFP-high sorted cells (eGFP-extension fusion abundance) (ratio); higher = stronger loss of eGFP-fusion protein abundance (more destabilising extension)
Answer each item with its documented median enrichment.

Reference set, count: 9
[
  {
    "substance": "SAGSSPLVHSSQGQKGVDMINTESPTSTPTEFPARQCQKHFSREPKPNQEEAREEAGREEGAFPAPRFLKCRSDTCVGVHVLY [SWI5]",
    "median enrichment": 1.02
  },
  {
    "substance": "QSCSIHIGLMD [ZCCHC10]",
    "median enrichment": 0.408
  },
  {
    "substance": "CVARALGVLLEAPRASRIASQLPGQPTLLQPLTRTPVIRTGAPVPWSPPWAHVLTQAQQ [OVOL1]",
    "median enrichment": 8.09
  },
  {
    "substance": "GGAVAANTPASGLLVAAPGDTPAKPTRWRGPPWSLATLPASAQGPLPSPGHLLCRRHSSQKPLSQKRLVFKKSRFFAPEVSFR [AP1M1]",
    "median enrichment": 5.45
  },
  {
    "substance": "TTTTTTT [Thr07]",
    "median enrichment": 0.319
  },
  {
    "substance": "SGLLPLGPLTLSGWWTTKYNPVYNLKIYFTFVLLYLFIKG [SMAD4]",
    "median enrichment": 7.74
  },
  {
    "substance": "RTSARPARPFPTST [ISLR2]",
    "median enrichment": 0.582
  },
  {
    "substance": "QTLGNSISCIFDQIVTSFCI [RAB18]",
    "median enrichment": 5.83
  },
  {
    "substance": "YMKLDI [ARF4]",
    "median enrichment": 1.7
  }
]

Fill blank: measured median enrichment of the substance RAKPDGQHRHRHTPQGPTLLSFTVPWHIGERIYPSPGSPGHSVLSKTRMWYQLWKRKVSCQQYLLPSRQPSQVRHLLRSHREP [SPSB4] is ____.
7.24

====

- System: HEK293T
- protocolNotes: median enrichment of reporter reads in eGFP-reduced (low/intermediate) vs eGFP-high sorted cells (eGFP-extension fusion abundance) (ratio); higher = stronger loss of eGFP-fusion protein abundance (more destabilising extension)
outcomeMeasure: median enrichment
Give bare numbers.

Reference set, count: 5
[
  {
    "substance": "CGWNQGQPALRASVLLRGAVCGEGLSWQGKHLRVTLTLGPLLFLKRLLATGKKNDLATLEETSAKEDVLASLSYFCSVVDLHI [POLR1D]",
    "readoutValue": 8.09
  },
  {
    "substance": "WPEPLADITAGDEEPGLLLLLPVAPGVEVG [LIMD1]",
    "readoutValue": 12
  },
  {
    "substance": "DDDDDDDD [Asp08]",
    "readoutValue": 0.299
  },
  {
    "substance": "QQQQQQQQ [Gln08]",
    "readoutValue": 0.342
  },
  {
    "substance": "YVLCCIPFSFLQMTMNFKLWGQCCNIFTFSNSQNLKNVKLCLVCFS [INPP4B]",
    "readoutValue": 5.86
  }
]

Record median enrichment per entry; entries follow.
1. QRCEGIGETLGWLVMVSIAGHQKLDS [B4GALNT2]
2. SDPAGSINLDAWTL [MYL5]
3. LTATRMDTALAVPTLDRVSALLHTGGGAGAYSCSIKHPSYAPPQ [ACTL7A]
4. KRGTGGRGRGVLHEMLMLSVISGESV [FAM98C]

4.77
0.467
9.25
7.54

Record median enrichment per entry; entries follow.
1. QFCPPVTPVSGTRNPQHALMLCF [DNMT1]
2. YNQGSVTPCHAPTVEIPPLLKFFMVVSLPGSLMLS [KCNS1]

[4.79, 11.7]

====

- Tested on: HEK293T
- protocolNotes: median enrichment of reporter reads in eGFP-reduced (low/intermediate) vs eGFP-high sorted cells (eGFP-extension fusion abundance) (ratio); higher = stronger loss of eGFP-fusion protein abundance (more destabilising extension)
Rule: median enrichment under 3 gives false, otherwise true.

Use the examples below as a reference point.
[
  {
    "substance": "LVSRPWGSCFPIPEFPCSPPPVVLPDLHLELSPPESPHRRPAMEPSPPGAPWGPSP [ALPG]",
    "groupLabel": "true"
  },
  {
    "substance": "LVLLVLLICRCHRTAVTRFLIVPAQPCPRTLGCMSHNMDPG [TREML4]",
    "groupLabel": "true"
  },
  {
    "substance": "QGAGPWMVPVCLALGMAVEGTWQKQPHVLPCPRPGVDKTRGVFWSPPAELEASHCNFSAQGLLNRCERPVPRVSL [SLC6A13]",
    "groupLabel": "true"
  },
  {
    "substance": "NNNNNNNN [Asn08]",
    "groupLabel": "false"
  },
  {
    "substance": "RRRRRR [Arg06]",
    "groupLabel": "false"
  }
]

Could you please find out whether SNTAFNWELETH [PREPL] has median enrichment that meets 3 or exceeds it?
false

Could you please find out whether KTKAKYIDFTVILKYNKNC [IL26] has median enrichment that meets 3 or exceeds it?
true

Could you please find out whether CGWPRAVRTMKPGQRPGASPAALPTRHPPASPLGAGAHPQHPHLLINISTPGCST [COPE] has median enrichment that meets 3 or exceeds it?
true

Could you please find out whether STSHAYQVAELGPLGQGAQATSSFVVTKQGSPFPFLLPYFVQRTRVIYIYICICLYPSPHLSDSALGTQLWAARGAVPCGSSC [SCAMP5] has median enrichment that meets 3 or exceeds it?
true

Could you please find out whether YVYLFLQEI [PI15] has median enrichment that meets 3 or exceeds it?
true

Could you please find out whether QEATDRVSLVIRSQRFTI [ITM2A] has median enrichment that meets 3 or exceeds it?
true

====

Answer each item with its documented median enrichment.
- Test system: HEK293T;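 note: lentiviral eGFP-IRES-mCherry reporter pool sorted by FACS 96 h post-transduction, gated on mCherry-high cells, Illumina read counts normalized per million, median across four biological replicates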
- protocolNotes: median enrichment of reporter reads in eGFP-reduced (low/intermediate) vs eGFP-high sorted cells (eGFP-extension fusion abundance) (ratio); higher = stronger loss of eGFP-fusion protein abundance (more destabilising extension)
One number for each entry.

Reference set, count: 4
[
  {
    "substance": "YLDHDLVQ [TRAT1]",
    "median enrichment": 0.456
  },
  {
    "substance": "SGGVGPGRAGVCWHRQPPLWALGGPLKGSPTRGPDESFLSGVGSQRGSPPAAWGRAWPGRVIQRVCQPLTGSPSVAATRSTEL [FAM53B]",
    "median enrichment": 5.41
  },
  {
    "substance": "WEPTACRCRRMRGCRDARRRPRSQPTTPPPA [FOXL2]",
    "median enrichment": 17.5
  },
  {
    "substance": "LALYLGSGQELHLGTNSC [ABCF2]",
    "median enrichment": 6.15
  }
]

Record median enrichment per entry; entries follow.
1. SKERHTSEQRSYMCTK [DEFB114]
2. WEMVGIRLRAASTQSQSKASLLMCEFTNSDGSSHILQMLSLPAG [ITSN2]
3. EPGNPYSFSNTGSFI [ADAM30]
4. YRMETQKT [USH2A]
5. LRPGHPDVLLKGAPRAGRGL [CBLC]
6. WFIFKGLCVTLTFPVVTCDCFVFVEEYCFYFEKRVFFLSMGLQGWCTTGPSMYSCIDFFT [CD109]
7. YPQPPPHHPLPKSSACSPGERTAGLSY [COTL1]
8. SAHAARRQGGLRRGPHSTRVCFCAAVQTVATALTERDSRAFILKEMFFPRGLLKE [GATA6]

1. 0.227
2. 19.2
3. 0.267
4. 0.809
5. 1.91
6. 0.738
7. 11.5
8. 4.62
